Test system: HOP-62 NSCLC
experiment summary: NCI tumour cell line growth inhibition, 48 h; in the data active = GI50 below about 0.43 µM; inactive = the rest
Write down one outcome, taken from class 1 (active), class 0 (inactive)

> print(dat)
                                   compound  target.or.test.system  category
1  C=C(C)[C@@H]1CC[C@]2(C(=O)O)CC[C@]3(C)[C@H](CC[C@@H]4[C@@]5(C)C/C(=C/c6cccc(I)c6)C(=O)C(C)(C)[C@@H]5CC[C@]43C)[C@@H]12           HOP-62 NSCLC   class 0

Please state the recorded outcome for this compound: "COc1cc(-c2nc3cc(Cl)c(Cl)cc3[nH]2)ccc1OCC(=O)N=Nc1c(O)[nH]c2ccc(Cl)cc12"
class 0

Please state the recorded outcome for this compound: "O=C(CCN1CCCC1)Nc1ccc2c(NCCc3ccccc3)c3ccccc3nc2c1"
class 1

Please state the recorded outcome for this compound: CCOC(=O)c1ccccc1SC(C[N+](=O)[O-])c1ccccc1 (stereo unspecified)
class 0

Please state the recorded outcome for this compound: "Fc1ccc([C@@H]2CCNC[C@H]2COc2ccc3c(c2)OCO3)cc1"
class 0

Please state the recorded outcome for this compound: "Cc1ccc2nc3c(n2c1)C(=O)C(=O)c1ccccc1-3"
class 1

---

Test system: OVCAR-3 ovarian
experiment summary: NCI tumour cell line growth inhibition, 48 h
measured quantity: GI50

> print(dat)
                                item.smiles  measured.quantity    result
1  Cc1ccc(-c2cc(-c3ccc(C)cc3)nc(N3CCN(CCNc4ccnc5cc(Cl)ccc45)CC3)n2)cc1               GI50   1290 nM
2  CNC(=O)c1cc(Oc2ccc3nc(N[C@@H]4CCCC[C@H]4O)sc3c2)ccn1               GI50  45200 nM
3  O=C(CCN1CCCC1)Nc1ccc2c(NCCc3ccccc3)c3ccccc3nc2c1               GI50    454 nM
4  O=C1/C(=C/c2ccc(Cl)cc2)CN(C(=O)CCN2CCC(=NO)CC2)C/C1=C\c1ccc(Cl)cc1               GI50    628 nM
5  COc1cc(C(=O)O/N=C(\N)Cc2cccc3ccccc23)cc(OC)c1OC               GI50   9620 nM

# return GI50 for each item in the list
1. Clc1ccc2nc(Cl)c3ccccc3c2c1
2. O=C(NO)c1ccc(Cn2c(=O)n(-c3ccccc3)c(=O)c3ccccc32)cc1

1. 24700 nM
2. 1580 nM

---

System: OVCAR-4 ovarian
experiment summary: NCI tumour cell line growth inhibition, 48 h
Hi there, I'd appreciate the recorded TGI for every entry that follows.

molecule	TGI
COc1ccc(-c2nc(-c3cnccn3)n(Cc3ccccc3)n2)cc1	> 100 µM
COC12C=CC(CC1)C(C)(C)C2OS(C)(=O)=O (centres undefined)	> 100 µM
CC(C)C1=C(Cc2ccccc2)C(=O)O/C1=C\c1ccc(O)c(Cl)c1	27.8 µM

# return TGI for each item in the list
1. CCn1c(=O)c2c3ccc(OC)cc3[nH]c2c2ccc(OC)cc21
2. O=C(/C=C/c1ccccc1O)c1cccc2ccccc12

["> 100 µM", "> 100 µM"]

---

Test system: MDA-MB-231 breast
experiment summary: NCI tumour cell line growth inhibition, 48 h; in the data active = GI50 below about 0.43 µM; inactive = the rest
Write down one outcome, taken from active, inactive

Please state the recorded outcome for this compound: CCOC(=O)c1ccccc1SC(C[N+](=O)[O-])c1ccccc1 (stereo not drawn)
inactive

Please state the recorded outcome for this compound: "O=C(Nc1ccc(Oc2ccc(NC(=O)Nc3ccc([N+](=O)[O-])cc3)cc2)cc1)Nc1ccc([N+](=O)[O-])cc1"
inactive

Please state the recorded outcome for this compound: "O=C(CCN1CCCC1)Nc1ccc2c(NCCc3ccccc3)c3ccccc3nc2c1"
inactive

Please state the recorded outcome for this compound: "Nc1nccc2c1ccn2-c1cccc(NC(=O)c2ccc(N3CCOCC3)c(C(F)(F)F)c2)c1"
inactive

Please state the recorded outcome for this compound: "Cc1ccc2nc3c(n2c1)C(=O)C(=O)c1ccccc1-3"
inactive

Please state the recorded outcome for this compound: "CCOC(=O)Cn1c(-c2nonc2NC(=O)c2ccccc2F)nc2ccccc21"
inactive

Please state the recorded outcome for this compound: "COc1ccc(-c2nnc(SCC(=O)Nc3ccc(C(=O)/C=C/c4cc(OC)c(OC)c(OC)c4)cc3)n2-c2ccccc2)cc1OC"
inactive

Please state the recorded outcome for this compound: "COc1ccc(-n2cc(-c3cc(OC)c(OC)c(OC)c3)[nH]c2=S)cc1Cl"
inactive

Please state the recorded outcome for this compound: "Fc1ccc([C@@H]2CCNC[C@H]2COc2ccc3c(c2)OCO3)cc1"
inactive

Please state the recorded outcome for this compound: "O=C(c1nn(-c2ccc(Cl)cc2)cc1O)n1nc(C(F)(F)F)cc1-c1ccccc1"
inactive

Please state the recorded outcome for this compound: "Clc1ccc2nc(Cl)c3ccccc3c2c1"
inactive

Please state the recorded outcome for this compound: "CN(C)c1ccc(Nc2c3ccccc3nc3cc(NC(=O)CCN4CCCC4)ccc23)cc1"
inactive

Please state the recorded outcome for this compound: "O=C(Cc1csc2nc(-c3ccc(Br)cc3)cn12)N/N=C/c1ccc(Cl)cc1Cl"
inactive

Please state the recorded outcome for this compound: "O=c1c2c(=NCCN3CCCC3)cc3c(=O)n(CCCN4CCOCC4)c(=O)c4ccc(c(O)n1CCCN1CCOCC1)c2c4-3"
active

Please state the recorded outcome for this compound: "CCSc1ccc([C@@H]2[C@@H](N)C(=O)N2c2cc(OC)c(OC)c(OC)c2)cc1"
active

Please state the recorded outcome for this compound: "O=C(c1ccco1)c1nc2cc(C(F)(F)F)ccc2[n+]([O-])c1C(F)(F)F"
inactive

Please state the recorded outcome for this compound: "O=C(O)c1cn(C2CC2)c2cc(N3CCNCC3)c(F)cc2c1=O"
inactive

Please state the recorded outcome for this compound: "COc1cc(-c2nc(-c3ccc(-c4nc5ccc(F)cc5[nH]4)cc3)no2)cc(OC)c1OC"
inactive
